Measured values drawn from patent US7612064B2 for this set.

Reported pIC50 values follow for various compounds
# Test system: Jurkat
# Test name: MTS proliferation assay
# Assay type: cell-based, human
# Experimental setup: 72 h
pIC50: −log10 of the molar value.

                                   compound  value_kind  result
0  COc1ccc(S(=O)(=O)n2cc(-c3ccc(N)nc3)cc2-c2cc(OC)ccc2OC)cc1       pIC50  > 6.70
1  COc1cc(-c2cc(-c3cccnc3)cn2S(=O)(=O)c2c(Cl)cccc2Cl)cc(OC)c1OC       pIC50  < 6.00
2  Cc1ccc(S(=O)(=O)n2cc(CN(C)C3CCN(Cc4ccccc4)C3)cc2-c2ccc3c(c2)OCO3)cc1 (stereo not drawn)       pIC50  < 6.00
3  NC(=O)c1cncc(-c2cc(-c3ccc4c(c3)OCO4)n(S(=O)(=O)c3cccc(Cl)c3)c2)c1       pIC50  < 6.00
4  CCN1CCCC1CNCc1cc(-c2ccc3c(c2)OCO3)n(S(=O)(=O)c2ccc(C)cc2)c1 (stereo not drawn)       pIC50  < 6.00
5  COc1cc(-c2cc(-c3cccnc3)cn2S(=O)(=O)c2ccc3c(c2)CCO3)cc(OC)c1OC       pIC50  > 6.00
6  O=S(=O)(c1cccc(Cl)c1)n1cc(CNc2ccc(-n3ccnc3)cc2)cc1-c1ccc2c(c1)OCO2       pIC50  < 6.00
7  CCN(CC)CCNCc1cc(-c2ccc3c(c2)OCO3)n(S(=O)(=O)c2ccc(C)cc2)c1       pIC50  < 6.00
8  COc1cc(-c2cc(-c3cccnc3)cn2S(=O)(=O)c2ccc([N+](=O)[O-])cc2)cc(OC)c1OC       pIC50  < 6.00
9  Cc1ccc(S(=O)(=O)n2cc(CN3CCN(c4ncccn4)CC3)cc2-c2ccc3c(c2)OCO3)cc1       pIC50  < 6.00

With Jurkat as the test system, `COc1cc(-c2cc(-c3cccnc3)cn2S(=O)(=O)c2ccc(C(F)(F)F)cc2)cc(OC)c1OC` showed pIC50 of > 6.00

With Jurkat as the test system, `COCCCNC(=O)c1cncc(-c2cc(-c3cc(OC)c(OC)c(OC)c3)n(S(=O)(=O)c3ccc(C)cc3)c2)c1.Cl` showed pIC50 of > 6.00

With Jurkat as the test system, `COc1cc(-c2cc(CNc3ccc(-n4cncn4)cc3)cn2S(=O)(=O)c2ccc(C)cc2)cc(OC)c1OC` showed pIC50 of > 6.00

With Jurkat as the test system, `Cc1ccc(S(=O)(=O)n2cc(-c3ccc(C(N)=O)cc3)cc2-c2ccc3c(c2)OCO3)cc1` showed pIC50 of < 6.00

With Jurkat as the test system, `Cc1ccc(S(=O)(=O)n2cc(-c3cncc(C(N)=O)c3)cc2-c2cccs2)cc1` showed pIC50 of > 6.00

----------
# Test name: Hoechst 33342 nuclear staining
# Assay type: cell-based
# Experimental setup: Jurkat cells, conc 3
Reported Hoechst 33342 nuclear staining score, Jurkat values follow for various molecules
// print number alone

>>> df
                           smiles_structure  measured_number
0  COc1cc(-c2cc(-c3cccnc3)cn2S(=O)(=O)c2ccc(N)cc2)cc(OC)c1OC                0

Item: `CCCCOc1ccc(S(=O)(=O)n2cc(-c3cccnc3)cc2-c2cc(OC)c(OC)c(OC)c2)cc1` | Hoechst 33342 nuclear staining score, Jurkat: 0

Item: `COc1cc(-c2cc(-c3cccnc3)cn2S(=O)(=O)c2c(Cl)cccc2Cl)cc(OC)c1OC` | Hoechst 33342 nuclear staining score, Jurkat: 0

----------
# Test name: Hoechst 33342 nuclear staining;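 further: apoptotic nuclei scored 0 none 1 weak under 50% of cells 2 strong over 50% of cells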
# Format: cell-based
# Experimental setup: HeLa cells, conc 0.3
Reported Hoechst 33342 nuclear staining score, HeLa values follow for various molecules
// print number alone

                                   molecule  measured_number
0  COc1cc(-c2cc(-c3cncc(C(=O)NC(C)CO)c3)cn2S(=O)(=O)c2ccc(C)cc2)cc(OC)c1OC.Cl (stereo not drawn) [Example 63]                0
1  COc1ccc(S(=O)(=O)n2cc(CNc3ccc(N4CCOCC4)cc3)cc2-c2c(OC)cc(OC)cc2OC)cc1 [Example 99]                0
2  COc1cc(-c2cc(-c3cccnc3)cn2S(=O)(=O)c2ccc3c(c2)CCO3)cc(OC)c1OC [Example 86]                0
3  COc1ccc(S(=O)(=O)n2cc(-c3ccc(N)nc3)cc2-c2ccccc2OC)cc1 [Example 103]                0

Now look at this one.
Item: COc1cc(-c2cc(CNc3ccc(-n4cncn4)cc3)cn2S(=O)(=O)c2ccc(C)cc2)cc(OC)c1OC [Example 68] | Hoechst 33342 nuclear staining score, HeLa: 0

----------
# Test name: Hoechst 33342 nuclear staining;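 further: apoptotic nuclei scored 0 none 1 weak under 50% of cells 2 strong over 50% of cells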
# Type: cell-based
# Experimental setup: Jurkat cells, conc 3
Value kind: Hoechst 33342 nuclear staining score, Jurkat

Some solved cases for reference:
>>> df
                           smiles_structure  result
0  COc1cc(-c2cc(-c3cccnc3)cn2S(=O)(=O)Cc2ccccc2)cc(OC)c1OC       0
1  NC(=O)c1cncc(-c2cc(-c3ccc4c(c3)OCO4)n(S(=O)(=O)c3cccc(Cl)c3)c2)c1       0

Item: `COc1ccc(S(=O)(=O)n2cc(CNc3ccc(N4CCOCC4)cc3)cc2-c2ccc(OC)cc2OC)cc1` | Hoechst 33342 nuclear staining score, Jurkat: 0

----------
# Test name: Hoechst 33342 nuclear staining;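 further: apoptotic nuclei scored 0 none 1 weak under 50% of cells 2 strong over 50% of cells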
# Assay type: cell-based
# Experimental setup: Jurkat cells, conc 3
Value kind: Hoechst 33342 nuclear staining score, Jurkat

>>> df
                           smiles_structure  result
0  COc1cc(-c2cc(-c3cccnc3)cn2S(=O)(=O)c2ccccc2Cl)cc(OC)c1OC       0

Item: `COc1cc(-c2cc(-c3cccnc3)cn2S(=O)(=O)c2cn(C)cn2)cc(OC)c1OC` | Hoechst 33342 nuclear staining score, Jurkat: 0

----------
# Test name: Hoechst 33342 nuclear staining;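 further: apoptotic nuclei scored 0 none 1 weak under 50% of cells 2 strong over 50% of cells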
# Type: cell-based
# Experimental setup: Jurkat cells, conc 3
Reported Hoechst 33342 nuclear staining score, Jurkat values follow for various compounds
// print number alone

>>> print(df.to_string())
                           smiles_structure  measured_number
0  COc1ccc(S(=O)(=O)n2cc(CNc3ccc(N4CCOCC4)cc3)cc2-c2ccccc2OC)cc1                0

Item: `COc1cc(-c2cc(-c3cccnc3)cn2S(=O)(=O)c2ccccc2)cc(OC)c1OC` | Hoechst 33342 nuclear staining score, Jurkat: 0

Item: `O=S(=O)(c1cccc(Cl)c1)n1cc(CNc2ccc(-n3ccnc3)cc2)cc1-c1ccc2c(c1)OCO2` | Hoechst 33342 nuclear staining score, Jurkat: 0

----------
Reported IC50 values follow for various molecules
# Tested on: Jurkat
# Test name: MTS proliferation assay
# Assay type: cell-based, human
# Experimental setup: 72 h

Some solved cases for reference:
>>> print(df.to_string())
                                   molecule  result
0  COc1cc(-c2cc(-c3cncc(C(=O)O)c3)cn2S(=O)(=O)c2ccc(C)cc2)cc(OC)c1OC.N [Example 66]  > 1 µM
1  Cc1ccc(S(=O)(=O)n2cc(CN(C)CCN(C)C)cc2-c2ccc3c(c2)OCO3)cc1 [Example 31]  > 1 µM

Item: CCN1CCN(CCNCc2cc(-c3ccc4c(c3)OCO4)n(S(=O)(=O)c3ccc(C)cc3)c2)CC1 [Example 15] | IC50: > 1 µM

Item: Cc1ccc(S(=O)(=O)n2cc(CNc3ccc(-n4ccnc4)cc3)cc2-c2ccc3c(c2)OCO3)cc1 [Example 40] | IC50: > 1 µM

Item: COc1cc(-c2cc(-c3cncc(CN)c3)cn2S(=O)(=O)c2ccc(C)cc2)cc(OC)c1OC [Example 58] | IC50: < 1 µM

----------
# System: Jurkat
# Test name: MTS proliferation assay
# Type: cell-based, human
# Experimental setup: 72 h
# Description: The assay is performed in 96 well tissue culture plates. […] The test compounds are added in 20 μl complete medium containing max 5% DMSO. The final compound concentrations in the assays are 10 μM, 3 μM, 1 μM and 0.3 μM, respectively. The assay plates are incubated for 72 h at culture conditions. The MTS reagent is prepared according to the manufacturer's protocol (Promega G1111). […] Subsequently, the plates are shortly shacked and absorption measured with a microplate-reader at 492 nm.
pIC50: −log10 of the molar value.
Value kind: pIC50

Some solved cases for reference:
In [3]: df
Out[3]:
                                   molecule  value_kind  result
0  COc1cc(-c2cc(-c3cccnc3)cn2S(=O)(=O)c2ccc(F)cc2)cc(OC)c1OC       pIC50  < 6.00
1  Cc1ccc(S(=O)(=O)n2cc(CNCCCN3CCN(Cc4ccccc4)CC3)cc2-c2ccc3c(c2)OCO3)cc1       pIC50  < 6.00
2  Cc1ccc(S(=O)(=O)n2cc(CN3CCN(c4ccccn4)CC3)cc2-c2ccc3c(c2)OCO3)cc1       pIC50  < 6.00
3  COc1cc(-c2cc(-c3cccnc3)cn2S(=O)(=O)Cc2ccccc2)cc(OC)c1OC       pIC50  < 6.00
4  COc1cc(-c2cc(-c3cccnc3)cn2S(=O)(=O)c2ccc(OC(F)(F)F)cc2)cc(OC)c1OC       pIC50  < 6.00
5  Cc1ccc(S(=O)(=O)n2cc(CNCCN3CCCC3)cc2-c2ccc3c(c2)OCO3)cc1       pIC50  < 6.00

With Jurkat as the test system, `Cc1ccc(S(=O)(=O)n2cc(CNc3ccc(N4CCOCC4)c(Cl)c3)cc2-c2ccc3c(c2)OCO3)cc1` showed pIC50 of < 6.00

With Jurkat as the test system, `COc1cc(-c2cc(CNc3ccc(N4CCOCC4)cc3)cn2S(=O)(=O)c2ccc(C)cc2)cc(OC)c1OC` showed pIC50 of > 6.00

With Jurkat as the test system, COc1cc(-c2cc(-c3cncc(C(=O)NC(C)CO)c3)cn2S(=O)(=O)c2ccc(C)cc2)cc(OC)c1OC.Cl (stereo not drawn) showed pIC50 of > 6.00
